measurementProtocol: protein stability index of a GFP-peptide fusion (GPS, HEK-293T) (PSI 1-6); higher = more stable;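 further: 24-mer peptide tiles fused after GFP, lentivirally expressed, FACS-sorted into six equal bins by GFP/DsRed ratio, decoded by Illumina sequencing, PSI is the read-weighted mean bin number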
testConditions: treatment: MLN4924 1 uM, 8 h; c terminus: a fixed tail appended
assayMetric: protein stability index
Could you respond with only the numeric value?

Solved cases (2 shown):
INSERT INTO measurements (sequencestring, recordedmeasurement) VALUES
  ('VLCEAAFPKKLAFAYLEDLHSEFD [SEC22B]', 2.31),
  ('FRDEKDYPASTSQDSFEAAGNSTS [KCNA3]', 5.47);

Per the record, GYGRAPGGLSLHDYKLLKPSLAVN [JUNB] has protein stability index of 2.88

###

measurementProtocol: protein stability index of a GFP-peptide fusion (GPS, HEK-293T) (PSI 1-6); higher = more stable
testConditions: treatment: DMSO; c terminus: a fixed tail appended
assayMetric: protein stability index
The answer should be written as a number, with no unit following it.

Here's what some known entries look like.
INSERT INTO results (sequencestring, recordedmeasurement) VALUES
  ('PSSQLMPVKKQLQGASWELQSLRP [ZNF396]', 3.66),
  ('KIQLRLAGQKRKHSEGRVEVYYDG [LOXL2]', 3.09),
  ('PAAPGAGGGSGSAPGPSRIADYLL [TRIB1]', 4.02),
  ('WLPLATLIDEKVLILHGGVSDITD [PPEF2]', 2.22),
  ('DGAWCAGRNDLQQWIEVDARRLTR [CPXM2]', 3.48);

Form field protein stability index, entry QSPVSPQPPAITQVHRQGERRREL [SMTNL2] : 5.26

Sure, the documented protein stability index for LALLNLACMMTITFLPYTFSLMVT [TMEM175] is 3.27

Record summary for MQAEAEAASVRMRGEAEAFAIGAR [FLOT1] : reported protein stability index = 4.62

Per the record, RTSLQYGIMCLKRLNYDRKELEKR [PPFIA4] has protein stability index of 2.88

Looking up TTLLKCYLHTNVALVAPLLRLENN [VPS39] , I see its protein stability index listed as 2.68

###

measurementProtocol: protein stability index of a GFP-peptide fusion (GPS, HEK-293T) (PSI 1-6); higher = more stable
testConditions: treatment: MLN4924 1 uM, 8 h; c terminus: a fixed tail appended
assayMetric: protein stability index

INSERT INTO measurements (sequencestring, assaymetric, recordedmeasurement) VALUES
  ('MAVAFLSAQRSKDPNSQVGACIVN [DCTD]', 'protein stability index', 2.27),
  ('PPHICWDETHFGKMGSYYINRTFF [POMT2]', 'protein stability index', 2.23),
  ('PQCIKEEDTPSDNDSGICMSPESY [ATF4]', 'protein stability index', 5.28),
  ('VSSVFLLTLSIAFICCAQVKVSHL [PHTF1]', 'protein stability index', 3.02),
  ('FIIHGFIDKGDESWVTDMCKVGAS [PNLIPRP1]', 'protein stability index', 2.65);

What the record says about RELLEFTHMYLQSDDEMELEETEP [P3H4] : protein stability index is 5.15

Lookup result for EEIVFNLTNNVDLDNTKKKMEIYQ [MNAT1] ; measured protein stability index: 4.02

###

Below is a list of entries, each paired with its recorded protein stability index value.
measurementProtocol: protein stability index of a GFP-peptide fusion (GPS, HEK-293T) (PSI 1-6); higher = more stable
testConditions: treatment: DMSO; c terminus: a fixed tail appended
Respond numerically, and do not add a unit to the figure.

Please review the entries below; each comes with its answer.
INSERT INTO results (sequencestring, recordedmeasurement) VALUES
  ('VLNTQGQKTSGQHMIQGAGSLEKA [DLC1]', 4.19),
  ('EYDDDDSAASTSFQPQPVQPQQGY [ZNF207]', 5.32);

Kindly note the recorded protein stability index for NEIQCTGNEKSIIDCKFNAESQGC [LOXL2] , which is 4.88

The recorded protein stability index for SDTIPYLKKFLYNFDNPWNFQNIP [MIA2] is 2.28

###

measurementProtocol: protein stability index of a GFP-peptide fusion (GPS, HEK-293T) (PSI 1-6); higher = more stable
testConditions: treatment: DMSO; c terminus: a fixed tail appended
assayMetric: protein stability index
No unit in the answer, please; the number alone is enough.

Reference set (3 entries):
INSERT INTO results (sequencestring, recordedmeasurement) VALUES
  ('HTRSLNSIIHQMEKFSSSLHELSS [FBF1]', 2.97),
  ('KASNSIISCFNNAPPAKLACPVCS [FAN1]', 2.92),
  ('QLKLDHYRAALRSCSLVLEHQPDN [FKBP8]', 2.93);

API: the following record is the query input.
// FVVLAFLTGVLCSYPNPNEDKCPG [TMEM192] : protein stability index value = 2.92

###

measurementProtocol: protein stability index of a GFP-peptide fusion (GPS, HEK-293T) (PSI 1-6); higher = more stable
testConditions: treatment: DMSO; c terminus: a fixed tail appended
Label Fulfilled when protein stability index is at or above 4; anything below gets Not fulfilled.

Record IIRLVRVFRIFKLSRHSKGLQILG [KCNA4] ; criterion: protein stability index no lower than 4. Met?
Not fulfilled

###

measurementProtocol: protein stability index of a GFP-peptide fusion (GPS, HEK-293T) (PSI 1-6); higher = more stable
testConditions: treatment: MLN4924 1 uM, 8 h; c terminus: a fixed tail appended
Categorize each record by its protein stability index using bin 0 = under 3, bin 1 = from 3 up to 4, bin 2 = 4 and over

INSERT INTO results (sequencestring, cat) VALUES
  ('DTERLDDFHLSIHSDMAAIVKAMA [DVL3]', 'bin 0'),
  ('KVRQLERDNAELENLIRERSQQQE [KRT33B]', 'bin 2'),
  ('ADTGRIHRFVEKPQVFVSNKINAG [GMPPB]', 'bin 1'),
  ('INPYSNRESRILFSTWNLDHIIEK [DFFB]', 'bin 0'),
  ('NKFASFIDKVRFLEQQNQVLETKW [KRT71]', 'bin 0');

Hey, which category is TKLLNDEDQVVVNKAAVMVHQLSK [CTNNB1] in, do you know?
bin 1

Which bin should I file HGSPQLGEGMFQHQTSVAHQPVVR [TBX5] under?
bin 2

Determine which band this sequence sits in: DTVTEVTARMEMLIEELYAFMPAR [CBY2]
bin 0

Which bin, given its protein stability index, does RISFCADDKTDKRIFTFICKDSES [GULP1] occupy?
bin 1

Could you tell me which band MDTSHQPLLPAPPKTPMDGADCGI [LYSMD4] belongs to?
bin 2

Just checking, what class would you give SCSSEDNLSLVCLPRSEDDDCDDD [DRICH1] here?
bin 2

Which class is correct for the following sequence? VCRIGDWLQERYEIVGNLGEGTFG [CLK3]
bin 0

Which of the defined bands does the recorded protein stability index of PSSQLMPVKKQLQGASWELQSLRP [ZNF396] sit within?
bin 1

###

sequences and their reported protein stability index
measurementProtocol: protein stability index of a GFP-peptide fusion (GPS, HEK-293T) (PSI 1-6); higher = more stable
testConditions: treatment: DMSO; c terminus: a fixed tail appended
Could you keep your reply to the number by itself?

Solved entries (count: 3):
INSERT INTO results (sequencestring, recordedmeasurement) VALUES
  ('CHLCNYACRRRDALTGHLRTHSVI [IKZF1]', 3.06),
  ('VDSFQIILDSLLFFYDCSNNPISE [TENT5C]', 3.03),
  ('QGEMDRKCKQVKEKCKEEFVEEIK [ZMYND11]', 4.91);

get_value(item= SRKPSLKGNREDSARMSAGLPGPE [PLEKHN1] , readout=protein stability index) returns 4.85

###

measurementProtocol: protein stability index of a GFP-peptide fusion (GPS, HEK-293T) (PSI 1-6); higher = more stable
testConditions: treatment: MLN4924 1 uM, 8 h; c terminus: a fixed tail appended
assayMetric: protein stability index
Just the number, please.

Sample answers from the record:
INSERT INTO measurements (sequencestring, recordedmeasurement) VALUES
  ('ALLGYEMVQVACGASHVLALSTER [NEK8]', 2.12),
  ('FPWIDAIMTQLRQEGWIHHLARHA [CRY1]', 2.96),
  ('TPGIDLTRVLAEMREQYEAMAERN [KRT13]', 4.4);

Recorded protein stability index (sequence QEAAERESKLLRDLSAANEKNLLL [LRRC45] ): 4.19

The sequence VLAIIAREGDCAPEEKIWEELSVL [MAGEA3] showed protein stability index equal to 2.42

The reported value for GQCLDSTDQLEFTVEPRLLVADLL [RTN2] in terms of protein stability index is 3

###

Reported protein stability index values are given for each entry in this list.
measurementProtocol: protein stability index of a GFP-peptide fusion (GPS, HEK-293T) (PSI 1-6); higher = more stable
testConditions: treatment: MLN4924 1 uM, 8 h; c terminus: a fixed tail appended
Keep the answer to the number alone.

A selection of reference data follows.
INSERT INTO results (sequencestring, recordedmeasurement) VALUES
  ('PVPPSEGKSRLSPAGEMKPMPLSE [BCL2L13]', 5.08),
  ('MSRMINKYKRRRFQKTKNLLTGET [CLPTM1]', 3.26),
  ('PPLRLWRSVIEVPAVPEEILKRLL [DLC1]', 2.43);

# sequence ADLSQKSPELQEEFGYNAETQKLL [ARFIP2] ; its protein stability index = 5.14

The reported protein stability index of the sequence KTSVEKANAQIQILTRSWEEVSTL [CD207] was 3.77
